system: two spotted mite (Tetranychus urticae Koch); test: Mite Foliage Spray Test; type: in vivo; design: key: A: Excellent control; B: Partial control; C: No control; conditions: 500 ppm foliage spray, six days
Property Measured: Mite pesticidal activity rating

The following compounds have reported results that may help.
Smiles String | Assayed System | Property Measured | Observed Measurement
CCOC(=O)C(C#N)=C1SC(=NOC(=O)NC)C(C)(C)S1 | two spotted mite (Tetranychus urticae Koch) | Mite pesticidal activity rating | C
CCN=C1SC(=NOC(=O)NC)C(C)(C)S1 | two spotted mite (Tetranychus urticae Koch) | Mite pesticidal activity rating | C
CN(C)C(=O)ON=C1SC(=C(C#N)C#N)SC1(C)C | two spotted mite (Tetranychus urticae Koch) | Mite pesticidal activity rating | C
CNC(=O)ON=C1SC(=S)SC1(C)C | two spotted mite (Tetranychus urticae Koch) | Mite pesticidal activity rating | B
CC(C)N=C1SC(=NOC(=O)N(C)SSC(C)(C)C)C(C)(C)S1 | two spotted mite (Tetranychus urticae Koch) | Mite pesticidal activity rating | A

`CCN=C1SC(=NOC(=O)N(C)SC(Cl)(Cl)Cl)C(C)(C)S1` on two spotted mite (Tetranychus urticae Koch) gives Mite pesticidal activity rating = A

`CCOC(=O)C(C#N)=C1SC(=NOC(=O)N(C)SC(Cl)(Cl)Cl)C(C)(C)S1` on two spotted mite (Tetranychus urticae Koch) gives Mite pesticidal activity rating = C

`CNC(=O)ON=C1SC(=CC(C)=O)SC1(C)C` on two spotted mite (Tetranychus urticae Koch) gives Mite pesticidal activity rating = C

Attribution: patent US4156731A
